Measured values drawn from patent US7118895B2 for this set.

# Test system: Crude diglycosidase
# method: Examination of pH in the conversion into isoflavone aglycons by diglycosidase using soybean materials
# Type: biochemical, Penicillium multicolor IAM7153
# condition_parameters: pH2, heat treatment of enzyme no, reaction time 3 h, 55° C.
property_label: Decomposition efficiency of glycitin family in roasted soy flour

molecular_string=COc1cc2c(=O)c(-c3ccc(O)cc3)coc2cc1O readout_value=9.5

I = COc1cc2c(=O)c(-c3ccc(O)cc3)coc2cc1O[C@@H]1O[C@H](COC(C)=O)[C@@H](O)[C@H](O)[C@H]1O
II = COc1cc2c(=O)c(-c3ccc(O)cc3)coc2cc1O[C@@H]1O[C@H](CO)[C@@H](O)[C@H](O)[C@H]1O
# input Could you kindly indicate whether I or II has the higher Decomposition efficiency of glycitin family in roasted soy flour value? Your choice should be expressed through its label.
# output II
